These entries and their values trace back to patent US20140213531A1.

Reported % inhibition at 100 µM values are given for each entry in this list.
# assay target: T1, Chymase, from human skin (human, UniProt P23946 22-247)
# T1 sequence (looked up): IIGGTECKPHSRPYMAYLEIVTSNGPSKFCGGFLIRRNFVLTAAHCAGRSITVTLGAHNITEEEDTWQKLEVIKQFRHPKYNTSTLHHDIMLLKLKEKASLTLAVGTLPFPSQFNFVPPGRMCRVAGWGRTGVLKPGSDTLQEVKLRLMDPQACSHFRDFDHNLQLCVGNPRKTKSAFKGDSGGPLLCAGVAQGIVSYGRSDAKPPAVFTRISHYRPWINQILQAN
# protocol notes: cell-based or functional assay
Bridges are numbered along the chain shown (N, C = ends). [ ]: non-standard residue; d: D form. AlloThr = allo threonine
quantity kind: % inhibition at 100 µM (%)

1. FCTKSDPPICS (HELM PEPTIDE1{F.C.T.K.S.D.P.P.I.C.S.[dA].D}$PEPTIDE1,PEPTIDE1,2:R3-10:R3|PEPTIDE1,PEPTIDE1,1:R1-13:R2$$$V2.0; SMILES CC[C@H](C)[C@@H]1NC(=O)[C@@H]2CCCN2C(=O)[C@@H]2CCCN2C(=O)[C@H](CC(=O)O)NC(=O)[C@H](CO)NC(=O)[C@H](CCCCN)NC(=O)[C@H]([C@@H](C)O)NC(=O)[C@@H]2CSSC[C@H](NC1=O)C(=O)N[C@@H](CO)C(=O)N[C@H](C)C(=O)N[C@@H](CC(=O)O)C(=O)N[C@@H](Cc1ccccc1)C(=O)N2) [Example 68]: 0
2. cyclo(FCTK[AlloThr]DPPICS[dP]P) (disulfide 2-10) [Example 24]: 1.2
3. FCTKXDPPICS (HELM PEPTIDE1{F.C.T.K.[NC[C@H](N[*:1])C(=O)[*:2]].D.P.P.I.C.S.[dP].P}$PEPTIDE1,PEPTIDE1,2:R3-10:R3|PEPTIDE1,PEPTIDE1,1:R1-13:R2$$$V2.0; SMILES CC[C@H](C)[C@@H]1NC(=O)[C@@H]2CCCN2C(=O)[C@@H]2CCCN2C(=O)[C@H](CC(=O)O)NC(=O)[C@H](CN)NC(=O)[C@H](CCCCN)NC(=O)[C@H]([C@@H](C)O)NC(=O)[C@@H]2CSSC[C@H](NC1=O)C(=O)N[C@@H](CO)C(=O)N1CCC[C@@H]1C(=O)N1CCC[C@H]1C(=O)N[C@@H](Cc1ccccc1)C(=O)N2) [Example 25]: 10
